These entries and their values trace back to patent US20260137706A1.

biological target: binding of His-XIAP(BIR2)-avi fusion protein to GST-RIPK2 fusion protein (RIPK2/XIAP) (Homo sapiens, UniProt O43353); construct: made in house; host or cells: baculovirus infected Sf9 cells; test: RIPK2-XIAP binding competition PPI assay (TR-FRET); settings: RIPK2/XIAP binding competition PPI assay; read-out: PPI IC50 bin
Sequence (O43353 1-310 limits assumed): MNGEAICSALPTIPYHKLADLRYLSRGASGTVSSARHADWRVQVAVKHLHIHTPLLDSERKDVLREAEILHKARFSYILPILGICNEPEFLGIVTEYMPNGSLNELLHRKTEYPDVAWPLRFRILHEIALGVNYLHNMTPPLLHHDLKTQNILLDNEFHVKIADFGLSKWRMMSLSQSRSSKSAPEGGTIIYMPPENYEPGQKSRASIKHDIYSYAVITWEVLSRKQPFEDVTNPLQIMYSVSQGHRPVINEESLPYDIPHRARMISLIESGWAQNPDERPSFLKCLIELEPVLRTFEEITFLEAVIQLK
Measured IC50 values are reported for all entries that follow.

[
  {
    "Compound": "COc1cc2ncc(-c3ccc4c(c3)OCC4O)n2cc1S(=O)(=O)C(C)(C)C (stereo not drawn)",
    "IC50": "> 20 nM"
  },
  {
    "Compound": "CCCS(=O)(=O)Nc1cc(-c2cnc3cc(OC)c(S(=O)(=O)C4(C)CC4)cn23)cc(OC)c1OC",
    "IC50": "< 1 nM"
  },
  {
    "Compound": "COc1cc2ncc(-c3cc(F)c(OC)c(NS(=O)(=O)c4cccnc4)c3)n2cc1S(=O)(=O)C(C)(C)C",
    "IC50": "< 1 nM"
  },
  {
    "Compound": "C[C@H](CO)COc1cn2ncc(-c3cc(Cl)c(N)nc3F)c2cc1S(=O)(=O)C(C)(C)C",
    "IC50": "< 1 nM"
  },
  {
    "Compound": "COc1cc2ncc(-c3cc(F)c(N)nc3F)n2cc1S(=O)(=O)N1CCNCC1",
    "IC50": "> 20 nM"
  },
  {
    "Compound": "CC(C)(C)S(=O)(=O)c1cn2c(-c3cc(F)c(N)nc3F)cnc2cc1OCCCO",
    "IC50": "1 to 2.5 nM"
  },
  {
    "Compound": "COc1cc2ncc(-c3ccc4c(N)nccc4c3)n2cc1S(=O)(=O)C(C)(C)C",
    "IC50": "> 20 nM"
  },
  {
    "Compound": "COc1cc2ncc(-c3cccc(NS(=O)(=O)C4CCNCC4)c3)n2cc1S(=O)(=O)C(C)(C)C",
    "IC50": "> 20 nM"
  },
  {
    "Compound": "CC(C)(C)S(=O)(=O)c1cn2c(-c3cc4cc[nH]c4cc3F)cnc2cc1OCCO",
    "IC50": "< 1 nM"
  },
  {
    "Compound": "CC(N)COc1cc2ncc(-c3cc(Cl)c(N)nc3F)n2cc1S(=O)(=O)C(C)(C)C (stereo not drawn)",
    "IC50": "2.5 to 20 nM"
  },
  {
    "Compound": "COc1c(F)cc(-c2cnc3cc(OC[C@H](C)CO)c(S(=O)(=O)C(C)(C)C)cn23)cc1NS(C)(=O)=O",
    "IC50": "< 1 nM"
  },
  {
    "Compound": "C[C@H](CO)COc1cc2ncc(-c3cc4cc[nH]c4nc3F)n2cc1S(=O)(=O)C(C)(C)C",
    "IC50": "< 1 nM"
  },
  {
    "Compound": "COc1cc2ncc(-c3ccc4nc(N)[nH]c4c3)n2cc1S(=O)(=O)C(C)(C)C",
    "IC50": "> 20 nM"
  },
  {
    "Compound": "COc1cc(NS(=O)(=O)c2cnn(C)c2)cc(-c2cnc3cc(OC)c(S(=O)(=O)C(C)(C)C)cn23)c1",
    "IC50": "< 1 nM"
  },
  {
    "Compound": "CCCS(=O)(=O)Nc1cc(-c2cnc3cc(OC)c(C(=O)N(C)C(C)C)cn23)cc(F)c1OC",
    "IC50": "> 20 nM"
  },
  {
    "Compound": "CC(C)(C)S(=O)(=O)c1cn2c(-c3cc(F)c(N)nc3F)cnc2cc1-c1cc[nH]n1",
    "IC50": "> 20 nM"
  },
  {
    "Compound": "C[C@H](O)COc1cc2ncc(-c3cc(F)c(N)nc3F)n2cc1S(=O)(=O)C(C)(C)C",
    "IC50": "1 to 2.5 nM"
  },
  {
    "Compound": "CC(C)(C)S(=O)(=O)c1cn2c(-c3ccc4[nH]cnc4c3)cnc2cc1OCCO",
    "IC50": "> 20 nM"
  },
  {
    "Compound": "CC(C)(C)S(=O)(=O)c1cn2c(-c3cc(F)c(N)nc3F)cnc2cc1OCCN1CCOC1=O",
    "IC50": "2.5 to 20 nM"
  },
  {
    "Compound": "COc1cc(-c2cnc3cc(OCCO)c(S(=O)(=O)C(C)(C)C)cn23)cc(NS(=O)(=O)c2cnn(C)c2)c1OC",
    "IC50": "< 1 nM"
  },
  {
    "Compound": "COc1cc2ncc(-c3cc(N)cc4[nH]ncc34)n2cc1S(=O)(=O)C(C)(C)C",
    "IC50": "> 20 nM"
  },
  {
    "Compound": "CC1(C)CNc2ncc(-c3cnc4cc(OCCO)c(S(=O)(=O)C(C)(C)C)cn34)cc21",
    "IC50": "> 20 nM"
  },
  {
    "Compound": "CCOc1cc2ncc(-c3cc4cc[nH]c4nc3F)n2cc1S(=O)(=O)C(C)C",
    "IC50": "1 to 2.5 nM"
  },
  {
    "Compound": "CN(C)CCOc1cc2ncc(-c3cc(F)c(N)nc3F)n2cc1S(=O)(=O)C(C)(C)C",
    "IC50": "> 20 nM"
  },
  {
    "Compound": "COc1cc2ncc(-c3cc(F)c(OC)c(NS(=O)(=O)c4cnn(C)c4)c3)n2cc1C(F)(F)F",
    "IC50": "2.5 to 20 nM"
  },
  {
    "Compound": "COc1cc2ncc(-c3cc(F)c(OC)c4[nH]c(CN5CC(O)C5)nc34)n2cc1S(=O)(=O)C(C)(C)C",
    "IC50": "1 to 2.5 nM"
  },
  {
    "Compound": "C[C@H](CO)COc1cc2ncc(-c3cc(F)c(N)nc3F)n2cc1S(=O)(=O)C(C)(C)C",
    "IC50": "1 to 2.5 nM"
  },
  {
    "Compound": "COc1cc2ncc(-c3cc(F)c(OC)c(NS(=O)(=O)c4cnc(C)o4)c3)n2cc1S(=O)(=O)C(C)(C)C",
    "IC50": "> 20 nM"
  },
  {
    "Compound": "CCC(C)(C)S(=O)(=O)c1cn2c(-c3cc(F)c(N)nc3F)cnc2cc1OC",
    "IC50": "2.5 to 20 nM"
  },
  {
    "Compound": "CC(C)(C)S(=O)(=O)c1cn2c(-c3cc(F)c(N)nc3F)cnc2cc1OCC1(CO)COC1",
    "IC50": "2.5 to 20 nM"
  }
]
